The measurements presented in this section are drawn from ChEMBL document CHEMBL6074679.

System: U-118-MG
Test: Cytotoxicity against human U-118 MG cells incubated for 48 hrs by MTT assay
Type: functional, cell-based
Hi! Could you tag entries with IC50 below 50 µM as fulfilled, and those at or above as not fulfilled? Much appreciated.

[[record]]
compound = "COc1ccc([C@@H](C)NC(c2ccc(F)cc2F)P(=O)(OC)OC)cc1 (stereo not given in full)"
label = "not fulfilled"

[[record]]
compound = "CCOP(=O)(OCC)C(N[C@H](C)c1ccccc1)c1ccc(F)cc1F (stereo not given in full)"
label = "fulfilled"

[[record]]
compound = "COP(=O)(OC)C(N[C@@H](C)C(C)(C)C)c1ccccc1F (stereo not given in full)"
label = "not fulfilled"

[[record]]
compound = "COP(=O)(OC)C(N[C@H](C)c1ccccc1)c1ccc(F)cc1F (stereo not given in full)"
label = "not fulfilled"

[[record]]
compound = "CC(C)OP(=O)(OC(C)C)C(N[C@@H](C)C(C)(C)C)c1ccc(F)cc1F (stereo not given in full)"
label = "not fulfilled"

[[record]]
compound = "COc1ccc([C@@H](C)NC(c2c(F)cc(F)cc2F)P(=O)(OC)OC)cc1 (stereo not given in full)"
label = "not fulfilled"

[[record]]
compound = "COP(=O)(OC)C(N[C@@H](C)C(C)(C)C)c1ccc(F)cc1F (stereo not given in full)"
label = "not fulfilled"

[[record]]
compound = "CCOP(=O)(OCC)C(N[C@H](C)c1ccc(OC)cc1)c1ccc(F)cc1F (stereo not given in full)"
label = "fulfilled"

[[record]]
compound = "COP(=O)(OC)C(N[C@@H](C)C(C)(C)C)c1ccc(F)cc1 (stereo not given in full)"
label = "fulfilled"

[[record]]
compound = "COc1ccc([C@@H](C)NC(c2ccc(F)cc2F)P(=O)(OC(C)C)OC(C)C)cc1 (stereo not given in full)"
label = "not fulfilled"

[[record]]
compound = "COc1ccc([C@@H](C)NC(c2c(F)c(F)c(F)c(F)c2F)P(=O)(OC)OC)cc1 (stereo not given in full)"
label = "fulfilled"

[[record]]
compound = "COc1ccc([C@@H](C)NC(c2ccccc2F)P(=O)(OC)OC)cc1 (stereo not given in full)"
label = "not fulfilled"

[[record]]
compound = "CCOP(=O)(OCC)C(N[C@@H](C)C(C)(C)C)c1ccc(F)cc1 (stereo not given in full)"
label = "not fulfilled"

[[record]]
compound = "CCOP(=O)(OCC)C(N[C@H](C)c1ccc(OC)cc1)c1c(F)c(F)c(F)c(F)c1F (stereo not given in full)"
label = "fulfilled"

[[record]]
compound = "CCOP(=O)(OCC)C(N[C@@H](C)C(C)(C)C)c1ccc(F)cc1F (stereo not given in full)"
label = "fulfilled"

[[record]]
compound = "CCOP(=O)(OCC)C(N[C@@H](C)C(C)(C)C)c1c(F)cc(F)cc1F (stereo not given in full)"
label = "fulfilled"

[[record]]
compound = "COP(=O)(OC)C(NC(C)C(C)(C)C)c1ccc(F)cc1 (racemic)"
label = "fulfilled"

[[record]]
compound = "COc1ccc([C@@H](C)NC(c2ccc(F)cc2)P(=O)(OC(C)C)OC(C)C)cc1 (stereo not given in full)"
label = "fulfilled"

[[record]]
compound = "COP(=O)(OC)C(N[C@@H](C)C(C)(C)C)c1c(F)cc(F)cc1F (stereo not given in full)"
label = "not fulfilled"

